# system: YAP-TEAD interaction (Homo sapiens, UniProt P28347)
# Construct: expressed in transfected cells; host or cells: HEK293 GripTite 293 MSR (Invitrogen R795-07)
# Sequence (P28347 whole entry): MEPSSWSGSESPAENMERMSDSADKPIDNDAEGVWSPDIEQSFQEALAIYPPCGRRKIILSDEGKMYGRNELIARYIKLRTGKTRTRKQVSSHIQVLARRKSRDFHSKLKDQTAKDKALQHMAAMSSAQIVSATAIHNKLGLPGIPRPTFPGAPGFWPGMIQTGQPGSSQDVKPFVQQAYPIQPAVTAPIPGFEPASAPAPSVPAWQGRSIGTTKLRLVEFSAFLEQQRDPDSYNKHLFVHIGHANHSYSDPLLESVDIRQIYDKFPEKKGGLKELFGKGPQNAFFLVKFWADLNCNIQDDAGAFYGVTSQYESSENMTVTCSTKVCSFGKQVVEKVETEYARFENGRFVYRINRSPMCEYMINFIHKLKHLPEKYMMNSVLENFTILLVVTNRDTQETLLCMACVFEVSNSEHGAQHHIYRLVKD
# experiment description: Cell-based TEAD-GAL4 transactivation assay (luciferase reporter)
# recorded conditions: HEK293, 24 h, HEK293 cells transfected with TEAD1-Gal4, YAP mutant (S127A, S397A) and luciferase reporter, compounds 0.1 μM to 30 μM, read-out: TEAD-GAL4 Transactivation activity Max Act
endpoint: Emax (%)
Respond numerically; units are % and should not be typed.

Record request: Emax value, item CCN(/N=C/c1ccc2c(c1)COB2O)c1ncnc2c3c(sc12)CCCC3
85

Record request: Emax value, item COc1cc(OC)c2c(c1)C(N(CC(C)C)/N=C/c1ccc(B(O)O)c(OC)c1)=NS2(=O)=O
89

Record request: Emax value, item COc1cc(/C=N/N(C)c2ncnc3c(OC)cccc23)ccc1B(O)O
97

Record request: Emax value, item COc1cc(/C=N/N(CC(C)C)C2=NS(=O)(=O)c3ccccc32)ccc1B(O)O
86

Record request: Emax value, item COc1cc(C2=NN(C3=NS(=O)(=O)c4ccccc43)CC(C)O2)ccc1B(O)O (centres unmarked)
81

Ref: patent US11999758B2
